B1: CPEB3 Ribozyme (parent)
chain: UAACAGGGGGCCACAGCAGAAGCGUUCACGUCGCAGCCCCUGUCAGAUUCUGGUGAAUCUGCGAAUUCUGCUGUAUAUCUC

variants of: B1; assay: self-cleavage, relative activity (ratio to wild type); higher = more cleavage; in vitro, sequencing
Value kind: self-cleavage

C40A U72C :: 0.37
A5C U41G :: 0.35
U25A U76C :: 0.32
C32A U51G :: 0.31
U25A U60A :: 0.29
U1A C37A :: 0.31
A20U A57U :: 0.58
A56C A57G :: 0.5
G16A G73C :: 0.86
C37A A65U :: 0.36
G8U U58A :: 0.32
A13U U74C :: 1.28
G30A A77G :: 0.4
G19U A45U :: 0.2
U54G U67A :: 0.57
C38U A64U :: 0.37
U43C U48C :: 0.25
U72A U80A :: 1.11
U60G G70A :: 0.21
U58C A77C :: 0.26
G33C U72A :: 0.09
A28G C81U :: 0.75
A3C A21G :: 0.63
C40G U66C :: 0.22
C44A U72C :: 0.71
G70U :: 0.37
A5G C62U :: 0.35
G19C G22A :: 0.22
A57G C79U :: 1.1
A3G U25A :: 0.63
G61C U80C :: 0.5
U69G G73A :: 0.98
U54A U74C :: 1.28
G24C A57U :: 0.11
U31C C38U :: 0.98
A35C U80A :: 0.89
G19U U67C :: 0.13
A20U A75G :: 0.2
A21C U25C :: 0.28
G55A U80A :: 1.15
U80G C81U :: 1.39
A35G U80A :: 1.32
A18G G19C :: 0.2
U60A C71U :: 0.48
G8A A77C :: 0.09
C29A U60C :: 0.2
